Target Entity: SMYD3 (Homo sapiens (Human))
Experimental Protocol: SMYD3 biochemical assay (SPA, 3H-SAM methylation of MEKK2 protein substrate)
Experimental Setup: read-out: SMYD3 Biochem IC50 (μM)*
Assay Metric: log10(IC50) (log10 of the value in µM)
Use the decimal logarithm of IC50 (µM).

Reference set, count: 3
| Molecule | log10(IC50) |
| --- | --- |
| COCCN(C)c1ccc(S(=O)(=O)N2CC[C@H](NC(=O)c3cc(C4CC4)on3)C[C@@H]2C)cn1 | 0.33 |
| COCCNc1ccc(S(=O)(=O)N2CC[C@H](NC(=O)c3cc(C4CC4)on3)C[C@@H]2C)cn1 | 0.17 |
| NC1CCC(C(=O)N2CCC(NC(=O)c3cc(C4CC4)on3)CC2c2ccccc2)CC1 (centres unmarked) | 0.53 |

Provide each entry's log10(IC50) from the list below.
1. C[C@H]1CC(NC(=O)c2cc(C3CC3)on2)CCN1C(=O)C(C)(C)C1CCNCC1 (some centres unmarked)
2. C[C@H]1C[C@@H](NC(=O)c2cc(C3CC3)on2)CCN1S(=O)(=O)c1cn(C)cn1
3. C[C@H]1C[C@H](NC(=O)c2cc(C3CC3)on2)CCN1C(=O)CCCCN

Reply:
1. 0.67
2. 0.09
3. 0.89

Record log10(IC50) per entry; entries follow.
1. C[C@H]1CC(NC(=O)c2cc(C3CC3)on2)CCN1C(=O)C1CCCNC1 (some centres unmarked)
2. C[C@H]1CC(NC(=O)c2cc(C3CC3)on2)CCN1C(=O)CC(O)CN (some centres unmarked)
3. O=C(N[C@@H]1C[C@H]2CC[C@@H](C1)N2S(=O)(=O)CCN1CCCC1)c1cc(C2CC2)on1 [compound 435]
4. C[C@@H]1C[C@@H](NC(=O)c2cc(C3CC3)on2)CCN1C(=O)CC(O)CN (some centres unmarked)
5. C[C@@H]1CN(C(=O)[C@H]2CC[C@H](N)CC2)[C@H](C)C[C@@H]1NC(=O)c1cc(C2CC2)on1
6. C[C@H]1CN(S(=O)(=O)CCCN)CC[C@@H]1NC(=O)c1cc(C2CC2)on1

Reply:
1: 0.74; 2: 0.72; 3: 0.30; 4: 0.96; 5: -1.95; 6: -1.05
